Measured Emax at 30 µM, listed per entry.
target.or.system: Human M4 (Homo sapiens)
Construct: expressed in transfected cells
Sequence (P08173 whole entry): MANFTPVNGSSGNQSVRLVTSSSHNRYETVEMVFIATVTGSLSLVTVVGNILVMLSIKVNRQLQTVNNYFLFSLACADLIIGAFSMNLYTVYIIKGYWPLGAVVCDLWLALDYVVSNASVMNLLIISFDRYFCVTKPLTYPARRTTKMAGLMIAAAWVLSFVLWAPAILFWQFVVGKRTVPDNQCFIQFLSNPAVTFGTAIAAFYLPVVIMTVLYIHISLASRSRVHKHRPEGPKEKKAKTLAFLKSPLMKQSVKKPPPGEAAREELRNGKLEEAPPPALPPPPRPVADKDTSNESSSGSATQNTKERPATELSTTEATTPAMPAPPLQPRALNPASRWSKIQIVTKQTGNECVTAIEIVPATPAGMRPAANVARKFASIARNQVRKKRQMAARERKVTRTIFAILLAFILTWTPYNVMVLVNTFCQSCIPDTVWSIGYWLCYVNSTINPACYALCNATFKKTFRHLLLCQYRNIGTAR
assay.explanation: mAChR M4 cell-based functional assay (calcium flux, PAM mode)
condition.label: CHO-K1, % ACh maximum at 30 μM; hM4-Gqi5 CHO-K1 cells
Your answer should be a plain number; it is taken to be in %.

1) [2H]C1(Oc2ccc3c(c2)OC([2H])([2H])C([2H])([2H])O3)CCN(c2nn3c(=O)cc(COC)nc3c(C)c2C)CC1 [Compound 110]: 80
2) [2H]C1(Oc2ccc3c(c2)OC([2H])([2H])C([2H])([2H])O3)CCN(c2nn3c(=O)cc(C(C)C)nc3c(C)c2C)CC1 [Compound 96]: 85
3) [2H]C1([2H])Oc2ccc(OC3CCN(c4nn5c(=O)cc(C(F)F)nc5c(C)c4C)CC3)cc2OC1([2H])[2H] [Compound 9]: 96
4) [2H]C1([2H])Oc2ccc(OC3CCN(c4cc(C)c5nccc(=O)n5n4)CC3)cc2OC1([2H])[2H] [Compound 22]: 36

[ask] Any idea what Emax at 30 µM was measured for [2H]C1([2H])Oc2ccc(O[C@@H]3CCN(c4nn5c(=O)cc(COC)nc5c(C)c4C)C[C@@H]3F)cc2OC1([2H])[2H] [Compound 121] ?
[reply] 111

[ask] Any idea what Emax at 30 µM was measured for [2H]C1([2H])Oc2ccc(O[C@H]3CCN(c4nn5c(=O)cc(COC)nc5c(C)c4C)C[C@@H]3F)cc2OC1([2H])[2H] [Compound 120] ?
[reply] 106

[ask] Any idea what Emax at 30 µM was measured for [2H]C1([2H])Oc2ccc(OC3CCN(c4nn5c(=O)c(C)cnc5cc4C)CC3)cc2OC1([2H])[2H] [Compound 29] ?
[reply] 80
